Assay: UKN2_HCS_IMR90_cell_viability: Viability Assessment in the University of Konstanz (UKN) Leist Lab Neural Crest Cell Migration Assay in human induced IMR90 Pluripotent Stem Cells (UKN2) (AID 2284233);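 also: viability of neural crest cells differentiated from IMR90 iPSC measured by calcein-AM fluorescence imaging; cells exposed to compound for 24 h after a 24 h migration phase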
Calls of active or inactive are those of the source. The calls were made as follows: active = hit-call score of the fitted dose curve at least 0.9, where 1 is the maximum; inactive = score below 0.9.
Outcomes: t = active, f = inactive

compound=CCCSP(=O)(OCC)SCCC assigned_category=f
compound=CON=C(C(=O)OC)c1ccccc1CON=C(C)c1cccc(C(F)(F)F)c1 assigned_category=t
compound="CCOP(=S)(Oc1cnc(C(C)(C)C)nc1)OC(C)C (stereo not given)" assigned_category=f
compound="COP(=O)(OC)OC(Br)C(Cl)(Cl)Br (stereo not given)" assigned_category=t
compound="CCOP(=O)(NC(C)C)Oc1ccc(SC)c(C)c1 (stereo not given)" assigned_category=f

====

Read-out: catalase (CAT), CAT (gene 847)
Test: LTEA_HepaRG_CAT: Life Technologies and Expression Analysis (LTEA) Assay for catalase (CAT) using HepaRG (AID 2283452)
Conditions: mRNA level, 48 h; actives raise or lower the signal
Active and inactive are the calls of the source. How the source made its calls: active means hit-call score of the fitted dose curve at least 0.9, where 1 is the maximum; inactive means score below 0.9.
Outcomes: active, inactive

compound=CNC(=O)ON=C(C)SC assigned_category=inactive
compound=O=C(O)c1cc(Oc2ccc(C(F)(F)F)cc2Cl)ccc1[N+](=O)[O-] assigned_category=inactive
compound=Nc1c(Cl)cc([N+](=O)[O-])cc1Cl assigned_category=active
compound="CC(C1CC1)C(O)(Cn1cncn1)c1ccc(Cl)cc1 (stereo not drawn)" assigned_category=inactive
compound="CCCSP(=O)(OCC)Oc1ccc(Br)cc1Cl (stereo not drawn)" assigned_category=inactive
compound="COP(=O)(NC(C)=O)SC (stereo not drawn)" assigned_category=inactive
compound=S=C1NCCN1 assigned_category=inactive
compound=Cc1ccn2nc(S(=O)(=O)Nc3c(F)cccc3F)nc2n1 assigned_category=inactive
compound=COc1cccc(C(=O)NN(C(=O)c2cc(C)cc(C)c2)C(C)(C)C)c1C assigned_category=inactive
compound=COc1ccc(C(=CC(=O)N2CCOCC2)c2ccc(Cl)cc2)cc1OC assigned_category=inactive
compound="CCOC(=O)CC(SP(=O)(OC)OC)C(=O)OCC (stereo not drawn)" assigned_category=inactive
compound=CNC(=O)Oc1cccc2c1OC(C)(C)O2 assigned_category=inactive
compound="CCc1cccc(C)c1N(C(=O)CCl)C(C)COC (stereo not drawn)" assigned_category=inactive

====

Read-out: Cytochrome P450 (CYP1A2), CYP1A2 (gene 1544)
Experiment: LTEA_HepaRG_CYP1A2: Life Technologies and Expression Analysis (LTEA) Assay for Cytochrome P450 (CYP1A2) using HepaRG (AID 2283479);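 as to AC50: TaqMan qRT-PCR transcript level normalized to ACTB GAPDH and POLR2A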
Details: mRNA level, 48 h; actives raise or lower the signal
Experimental: LTEA_HepaRG is a cell based, multiplexed-readout assay that uses HepaRG, a human liver cell line, with measurements taken at 48 hours after chemical dosing on a 96-well plate.LTEA_HepaRG_CYP1A2 is one of 102 assay component(s) measured in the LTEA HepaRG cell culture assay. It is a marker of NR mediated metabolism.Data from the assay component LTEA_HepaRG_CYP1A2 was analyzed into 1 endpoint. […]
The source made the active and inactive calls. The calls were made as follows: active = hit-call score of the fitted dose curve at least 0.9, where 1 is the maximum; inactive = score below 0.9.
Value type: AC50

molecule=CCOC(=O)COc1cc(-c2nn(C)c(OC(F)F)c2Cl)c(F)cc1Cl value_type=AC50 result=inactive
molecule="FC(F)C(F)(F)OCC(Cn1cncn1)c1ccc(Cl)cc1Cl (stereo unspecified)" value_type=AC50 result="28.6 µM (active)"
molecule=CCOP(=S)(OCC)Oc1ccc2c(C)c(Cl)c(=O)oc2c1 value_type=AC50 result="4.03 µM (active)"
molecule=CCc1cccc(CC)c1N(COC)C(=O)CCl value_type=AC50 result=inactive
molecule="CC(C1CC1)C(O)(Cn1cncn1)c1ccc(Cl)cc1 (stereo unspecified)" value_type=AC50 result=inactive
molecule=CCOP(=S)(OCC)Oc1ccc([N+](=O)[O-])cc1 value_type=AC50 result="15.1 µM (active)"
molecule=CNC(=O)Oc1cccc2c1OC(C)(C)O2 value_type=AC50 result=inactive
molecule="C#CCC1=C(C)C(OC(=O)C2C(C=C(C)C)C2(C)C)CC1=O (stereo unspecified)" value_type=AC50 result=inactive
molecule=CCCCOC(=O)[C@@H](C)Oc1ccc(Oc2ccc(C#N)cc2F)cc1 value_type=AC50 result="38.5 µM (active)"
molecule=CNC(=O)ON=C(SC)C(=O)N(C)C value_type=AC50 result=inactive
molecule=CCOP(=S)(OCC)Oc1cc(C)nc(C(C)C)n1 value_type=AC50 result="29.3 µM (active)"
molecule=CNc1cnn(-c2cccc(C(F)(F)F)c2)c(=O)c1Cl value_type=AC50 result="6.1 µM (active)"
molecule=Cc1ccn2nc(S(=O)(=O)Nc3c(F)cccc3F)nc2n1 value_type=AC50 result=inactive
molecule=CC(=NC#N)N(C)Cc1ccc(Cl)nc1 value_type=AC50 result=inactive
molecule=CC1(C(=O)Nc2ccc(O)c(Cl)c2Cl)CCCCC1 value_type=AC50 result=inactive
molecule=N#CSCSC#N value_type=AC50 result=inactive
molecule=C#CC(C)(C)NC(=O)c1cc(Cl)cc(Cl)c1 value_type=AC50 result="50 µM (active)"
molecule="CCCSP(=O)(OCC)Oc1ccc(Br)cc1Cl (stereo unspecified)" value_type=AC50 result=inactive
molecule=CCCSP(=O)(OCC)SCCC value_type=AC50 result=inactive
molecule=CN1COCN(Cc2cnc(Cl)s2)C1=N[N+](=O)[O-] value_type=AC50 result=inactive
molecule=CN(C)C(=O)Nc1cccc(C(F)(F)F)c1 value_type=AC50 result="42 µM (active)"
molecule="CCOP(=O)(NC(C)C)Oc1ccc(SC)c(C)c1 (stereo unspecified)" value_type=AC50 result=inactive
molecule=S=C1NCCN1 value_type=AC50 result=inactive
molecule=CCCCN(CC)c1c([N+](=O)[O-])cc(C(F)(F)F)cc1[N+](=O)[O-] value_type=AC50 result="35.8 µM (active)"
molecule=CON=C(C(=O)OC)c1ccccc1CON=C(C)c1cccc(C(F)(F)F)c1 value_type=AC50 result=inactive
molecule=CCC(CC)Nc1c([N+](=O)[O-])cc(C)c(C)c1[N+](=O)[O-] value_type=AC50 result=inactive

====

Below is a list of entries, each paired with its recorded AC50 value.
Read-out: Cytochrome P450 2B6 (Homo sapiens) (UniProt P20813)
Experiment: CLD_CYP2B6_48hr: CellzDirect (CLD) Gene Expression Assay for xenobiotic metabolism (CYP2B6) at 48 hours (AID 2283699);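 also: actives raise transcript level above DMSO so potency reflects induction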
Inconclusive results are not listed. The source made the active and inactive calls. How the source made its calls: active means hit-call score of the fitted dose curve at least 0.9, where 1 is the maximum; inconclusive means response in the unintended direction; inactive means score below 0.9.
Value type: AC50

chem_smiles=CCC(CC)Nc1c([N+](=O)[O-])cc(C)c(C)c1[N+](=O)[O-] value_type=AC50 result="6.23 µM (active)"
chem_smiles=CNC(=O)Oc1cccc2c1OC(C)(C)O2 value_type=AC50 result="3.08 µM (active)"

====

Read-out: ABC Transporter (ABCB1), ABCB1 (gene 5243)
Experiment: LTEA_HepaRG_ABCB1: Life Technologies and Expression Analysis (LTEA) Assay for ABC Transporter (ABCB1) using HepaRG (AID 2283460)
Settings: mRNA level, 48 h; actives raise or lower the signal
The source made the active and inactive calls. Rule for the calls: active = hit-call score of the fitted dose curve at least 0.9, where 1 is the maximum; inactive = score below 0.9.
Value type: AC50

compound=CCCCN(CC)c1c([N+](=O)[O-])cc(C(F)(F)F)cc1[N+](=O)[O-] result=inactive
compound=CC(C)[C@H](C(=O)O[C@H](C#N)c1cccc(Oc2ccccc2)c1)c1ccc(Cl)cc1 result="23.2 µM (active)"
compound=CCCCSP(=O)(SCCCC)SCCCC result="50 µM (active)"
compound="FC(F)C(F)(F)OCC(Cn1cncn1)c1ccc(Cl)cc1Cl (stereo not given)" result=inactive
compound=CCCCOC(=O)[C@@H](C)Oc1ccc(Oc2ccc(C#N)cc2F)cc1 result=inactive
compound=CCOP(=O)(OCC)Oc1cc(C)nc(C(C)C)n1 result=inactive
compound=CCCCOC(=O)c1ccccc1C(=O)O result=inactive
compound="CCC(=NOC/C=C/Cl)C1=C(O)CC(C2CCOCC2)CC1=O (stereo not given)" result=inactive
compound=CC[C@H](C)[C@H]1O[C@]2(C=C[C@@H]1C)C[C@@H]1C[C@@H](C/C=C(\C)[C@@H](O[C@H]3C[C@H](OC)[C@@H](O[C@H]4C[C@H](OC)[C@@H](NC)[C@H](C)O4)[C@H](C)O3)[C@@H](C)/C=C/C=C3\CO[C@@H]4[C@H](O)C(C)=C[C@@H](C(=O)O1)[C@]34O)O2 result="23 µM (active)"
compound=CSC1=N[C@@](C)(c2ccccc2)C(=O)N1Nc1ccccc1 result=inactive

====

Assay: CCTE_Shafer_MEA_dev_bursting_electrodes_number: CCTE's Neural Network Formation Assay for Number of Bursting Electrodes, Shafer Lab (AID 2284043)
Results filed as inconclusive are left out. Activity calls are given as the source filed them. How the source made its calls: active means hit-call score of the fitted dose curve at least 0.9, where 1 is the maximum; inconclusive means response in the unintended direction; inactive means score below 0.9.
Outcomes: active, inactive

compound=C[Si](Cn1cncn1)(c1ccc(F)cc1)c1ccc(F)cc1 assigned_category=active
compound=CC(C)[C@H](C(=O)O[C@H](C#N)c1cccc(Oc2ccccc2)c1)c1ccc(Cl)cc1 assigned_category=active
compound=CCOP(=O)(OCC)Oc1cc(C)nc(C(C)C)n1 assigned_category=inactive
compound=CCOP(=S)(OCC)Oc1cc(C)nc(C(C)C)n1 assigned_category=active
compound=S=C1NCCN1 assigned_category=inactive
compound=CC1=NNC(=O)N(/N=C/c2cccnc2)C1 assigned_category=inactive
compound=CCOP(=S)(OCC)Oc1ccc2c(C)c(Cl)c(=O)oc2c1 assigned_category=active
compound="COP(=O)(NC(C)=O)SC (configuration not stated)" assigned_category=inactive
compound="C#CCC1=C(C)C(OC(=O)C2C(C=C(C)C)C2(C)C)CC1=O (configuration not stated)" assigned_category=active
compound="CCCSP(=O)(OCC)Oc1ccc(Br)cc1Cl (configuration not stated)" assigned_category=inactive
compound=CN(C)[C@@H]1C(=O)C(C(N)=O)=C(O)[C@@]2(O)C(=O)C3=C(O)c4c(O)cccc4[C@@](C)(O)[C@H]3[C@H](O)[C@@H]12 assigned_category=active
compound="CC(C)=CC1C(C(=O)OCN2C(=O)C3=C(CCCC3)C2=O)C1(C)C (configuration not stated)" assigned_category=inactive
compound=CSC1=N[C@@](C)(c2ccccc2)C(=O)N1Nc1ccccc1 assigned_category=inactive
compound="CC(Oc1cccc(Cl)c1)C(=O)O (configuration not stated)" assigned_category=inactive
compound=CC(=NC#N)N(C)Cc1ccc(Cl)nc1 assigned_category=inactive
compound=C[N+]1(C)CCCCC1 assigned_category=inactive
compound=O=[N+]([O-])c1cc(C(F)(F)F)c(Cl)c([N+](=O)[O-])c1Nc1ncc(C(F)(F)F)cc1Cl assigned_category=active
